test system: 168753-222-R-J1-PDC complex spheroid viability; assay: Anticancer human tumor 168753-222-R-J1-PDC patient-derived bladder carcinoma cell line growth inhibition [CLK]; conditions: second compound 3.16 µM; first compound 0.003 µM; active = viability on the fitted dose curve at most 10% of control; inactive = the rest;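 note: luminescence signal used as surrogate for viable cell amount; viability measured after seven days of drug exposure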
Output constraint: value belongs to Yes for active, No for inactive

CC(C)CC(NC(=O)C(Cc1ccccc1)NC(=O)c1cnccn1)B(O)O (centres undefined) + CN1CCN(c2cc(C(=O)Nc3cc4cc(-c5cnn(C)c5)ccc4cn3)ccn2)CC1    Yes
C=CC(=O)Nc1cc(Nc2nccc(-c3cn(C)c4ccccc34)n2)c(OC)cc1N(C)CCN(C)C + CNC(=O)c1ccc(Nc2nc(OC3CCCC3)c3c(-c4ccc5nc(C)oc5c4)c[nH]c3n2)c(OC)c1    No
CC(C)CC(NC(=O)C(Cc1ccccc1)NC(=O)c1cnccn1)B(O)O (centres undefined) + CNC(=O)c1ccc(Nc2nc(OC3CCCC3)c3c(-c4ccc5nc(C)oc5c4)c[nH]c3n2)c(OC)c1    No

Now look at this entry.
Prompt: Please share the test call associated with C=CC(=O)Nc1cc(Nc2nccc(-c3cn(C)c4ccccc34)n2)c(OC)cc1N(C)CCN(C)C + CN1CCN(c2cc(C(=O)Nc3cc4cc(-c5cnn(C)c5)ccc4cn3)ccn2)CC1 .
Completion: Yes

The values you see were collected from PubChem BioAssay AID2060626.
